Molecular target: UniProt O35433
Details: read-out: Rat IC50
Structures can show the parent of a compound that is named as a salt.
measured-attribute: IC50 (nM)
Output spec: scalar in nM, unitless text.

INSERT INTO results (compound, measured_attribute, endpoint_value) VALUES
  ('FC(F)(F)c1ccc(Nc2nc(N3CCCCC3)nc3c2CCN(c2ncccc2C(F)(F)F)CC3)cn1 [Example 234, trifluoroacetic acid salt]', 'IC50', 80),
  ('Cc1cncnc1N1CCc2ncnc(Nc3ccc(C(C)(C)C)cc3)c2CC1 [Example 38]', 'IC50', 1400);

Attention now turns to another entry.
GET /values?readout=IC50&item= CC(C)c1nc2c(c(Nc3ccc(C(C)(C)C#N)cc3)n1)CCN(c1ncccc1C(F)(F)F)CC2 [Example 129] 230

---

This listing pairs molecules with measured pIC50.
Biological target: rat TRPV1 (Rattus norvegicus (Rat), UniProt O35433)
Sequence (O35433 whole entry): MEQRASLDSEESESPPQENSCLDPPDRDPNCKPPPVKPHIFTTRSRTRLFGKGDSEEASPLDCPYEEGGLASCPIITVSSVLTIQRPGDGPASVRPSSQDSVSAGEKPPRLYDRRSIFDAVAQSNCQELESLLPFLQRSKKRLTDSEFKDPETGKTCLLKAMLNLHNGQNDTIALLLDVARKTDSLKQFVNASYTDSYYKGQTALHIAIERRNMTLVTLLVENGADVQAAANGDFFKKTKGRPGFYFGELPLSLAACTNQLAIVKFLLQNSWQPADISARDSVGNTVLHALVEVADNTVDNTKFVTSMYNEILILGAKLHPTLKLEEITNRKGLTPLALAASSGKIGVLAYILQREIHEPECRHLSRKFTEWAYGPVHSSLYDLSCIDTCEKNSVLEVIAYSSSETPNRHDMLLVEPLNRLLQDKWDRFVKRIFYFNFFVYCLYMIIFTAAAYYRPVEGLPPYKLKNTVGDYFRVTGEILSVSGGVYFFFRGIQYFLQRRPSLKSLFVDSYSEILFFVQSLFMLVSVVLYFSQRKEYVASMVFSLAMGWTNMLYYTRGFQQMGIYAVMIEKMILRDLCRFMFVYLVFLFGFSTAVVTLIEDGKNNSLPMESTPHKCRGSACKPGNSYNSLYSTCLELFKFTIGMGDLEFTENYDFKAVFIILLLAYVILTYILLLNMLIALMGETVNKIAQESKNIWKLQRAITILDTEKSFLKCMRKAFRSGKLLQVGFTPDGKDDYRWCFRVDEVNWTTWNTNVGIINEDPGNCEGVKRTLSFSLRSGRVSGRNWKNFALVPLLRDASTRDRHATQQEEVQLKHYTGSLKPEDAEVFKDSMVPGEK
Conditions: read-out: Rat IC50
Where a name gives a salt, the structure may show the parent alone.
Please express pIC50 as -log10 of the molar concentration.

Can you look up pIC50 on rat TRPV1 (Rattus norvegicus (Rat), UniProt O35433) for CC(C)c1nc2c(c(Nc3ccc(C(C)(C)C)cc3)n1)CCN(c1ncc([N+](=O)[O-])cc1C(F)(F)F)CC2 [Example 290] ? 7.00

Can you look up pIC50 on rat TRPV1 (Rattus norvegicus (Rat), UniProt O35433) for CN1CCN(c2nc3c(c(Nc4ccc(C(F)(F)F)cc4)n2)CCN(c2ncccc2C(F)(F)F)CC3)CC1 [Example 92B, trifluoroacetic acid salt] ? 6.57

Can you look up pIC50 on rat TRPV1 (Rattus norvegicus (Rat), UniProt O35433) for FC(F)(F)c1cnc(Nc2nc(N3CCCCC3)nc3c2CCN(c2ncccc2C(F)(F)F)CC3)cn1 [Example 192] ? 7.15

Can you look up pIC50 on rat TRPV1 (Rattus norvegicus (Rat), UniProt O35433) for FC(F)(F)c1ccc(Nc2nc(N3CCOCC3)nc3c2CCN(c2ncccc2C(F)(F)F)CC3)cc1Cl [Example 381] ? 7.40

Can you look up pIC50 on rat TRPV1 (Rattus norvegicus (Rat), UniProt O35433) for CCS(=O)(=O)c1cccnc1N1CCc2nc(C(C)C)nc(Nc3ccc(C(C)(C)C)cc3)c2CC1 [Example 296] ? 6.92

Can you look up pIC50 on rat TRPV1 (Rattus norvegicus (Rat), UniProt O35433) for Cc1cc(C(F)(F)F)ccc1Nc1nc(S(C)(=O)=O)nc2c1CCN(c1ncccc1C(F)(F)F)CC2 [Example 209] ? 5.46

Can you look up pIC50 on rat TRPV1 (Rattus norvegicus (Rat), UniProt O35433) for Cc1nc2ccccc2nc1N1CCc2nc(C(C)C)nc(Nc3ccc(C(C)(C)C)cc3)c2CC1 [Example 33] ? 6.96

Can you look up pIC50 on rat TRPV1 (Rattus norvegicus (Rat), UniProt O35433) for CC(C)c1nc2c(c(Nc3ccc(C(F)(F)F)c(Cl)c3)n1)CCN(c1ncccc1C(F)(F)F)CC2 [Example 128] ? 6.82

Can you look up pIC50 on rat TRPV1 (Rattus norvegicus (Rat), UniProt O35433) for CC(C)(C)c1ccc(Nc2nc(C3CC3)nc3c2CCN(c2ncccc2C(F)(F)F)CC3)cc1 [Example 3] ? 7.02
